# Procedure Details: JC-1 mitochondrial potential readout, lung cancer cells – cell-based, A549, JC-1 fluorescence, basal, 24 h, 100 nL, profiling panel (AID 1138);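 further: A549 lung adenocarcinoma cells under basal conditions with no added stimulus; test concentration not given here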
# Assay Conditions: higher = more signal
Binning scheme for z-score: range 1 = under -0.1, range 2 = from -0.1 up to 0.7, range 3 = 0.7 and over

Worked examples, 5 compounds total:
Compound | Qualitative Label
Cc1ccc(S[C@]2(C(=O)NC3CC3)CC(=O)N(C(C)C)[C@@H]2c2ccc(CO)cc2I)cc1 | range 2
CCCC=C(CCC)[C@@H](NC(=O)OCC(C)C)c1ccc(C(=O)OC)cc1 | range 3
CC(C)C[C@H]1NC(=O)C([C@@H](C)OCc2ccccc2)NC(=O)[C@@]23C(=O)N[C@@H](Cc4ccccc4)C2[C@H](C)[C@@]2(C)O[C@H]2C3/C=C/C/C=C\CNC1=O (some centres undefined) | range 2
O=C(NC1CC1)[C@@H]1c2ccccc2C(=O)N(Cc2cc(C(F)(F)F)cc(C(F)(F)F)c2)[C@H]1c1ccc(CO)cc1 | range 1
Cc1ccc(F)cc1S(=O)(=O)N[C@H]1CCN(Cc2ccc(OC(C)C)cc2)C1 | range 3

**Query** Where would CC(C)(C)N1CC=CC23O[C@@H]4/C=C\CCCOC(=O)C4[C@H]2C(=O)N(CCCCCO)[C@@H]3C1=O (some centres undefined) land among the classes by reported z-score?
**Result** range 1

**Query** Next entry: COc1ccc([Si](C)(C)[C@H]2[C@H](CC(=O)N3Cc4ccccc4C[C@H]3CO)O[C@@]3(C(=O)N(C)c4ccccc43)[C@@H]2C)cc1
**Result** range 2

**Query** Next entry: CCOC(=O)C1=CCC(c2cc3ccccc3[nH]2)N(CCN2CC(C(=O)OCC)=CCC2c2cc3ccccc3[nH]2)C1 (centres undefined)
**Result** range 1
